Each record here notes measured Ratio Ki.
Species: Homo sapiens
Test: Selectivity ratio of Ki for human CB1 receptor to Ki for human CB2 receptor
Recorded Metric: Ratio Ki

Compound Structure String: CCCCCn1c(C)c(C(=O)c2ccc(Cl)c3ccccc23)c2ccccc21
Recorded Metric: Ratio Ki
Observed Result: 4

Compound Structure String: CCCn1cc(C(=O)c2ccc(F)c3ccccc23)c2ccccc21
Recorded Metric: Ratio Ki
Observed Result: 7

Compound Structure String: CCCCCn1cc(C(=O)c2cccc3cccc(Br)c23)c2ccccc21
Recorded Metric: Ratio Ki
Observed Result: 4
